- TESTED SYSTEM: full length human Shh expressed on the cell surface (human, UniProt Q15465 24-462)
- ASSAY NAME: cell-based or functional assay
MEASUREMENT LABEL: % Inhibition of Gli1 reporter, Co-Culture N = 1, 20 µg/ml (%)
Answer with a number only, understood to be in %.

Query: Provide one value: measured % Inhibition of Gli1 reporter, Co-Culture N = 1, 20 µg/ml of 1A12 (antibody, V domains shown, fully human XenoMouse hybridoma antibody; tested as hybridoma supernatant and as purified antibody; also called MAb 1A12) VH: QVYLVESGGGVVQPGRSLRLSCAASGFTFSSYGMHWVRQAPGKGLEWVAVIWYDGSNEYYADSVKGRFTISRDNSKNTLYLQMNSLRAEDTAVYYCARDLYYYGSGSPFDYWGQGTLVTVSS VL: EIVMTQSPATLSVSPGERATLSCRASQSVSSNLAWYQQKPGQAPRLLIFGVSIRATGIPARFSGSGSGTEFTLTISSLQSEDFAVYYCQQYNDWPRPGFGGGTKVEIK
Response: 58
